The entries below come with measured GI50 values attached.
- Tested on: MCF7
- procedure summary: NCI tumour cell line growth inhibition, 48 h
Activity calls are given as the source filed them. No stated cut-off is given here; in the data, active = GI50 up to about 1.1 µM and inactive = higher.

Consider the reported GI50 for these molecules:
O=c1[nH]cc(-c2c[nH]c3ccccc23)nc1-c1c[nH]c2ccccc12 | 10.2 µM (inactive)
O=C1Nc2ccccc2C1Cc1ccccc1 (stereo not given) | > 100 µM (inactive)
CC(=O)c1c2c(cc3c1CC1(Cc4cc5c(cc4C1)CCCC5)C3)CCCC2 | 19.4 µM (inactive)
CCOC(=O)c1c(-c2ccccc2)c(OC)cn1C | > 10 µM (inactive)
CC1(O)/C(=N/O)CC2CC1C2(C)C (stereo not given) | > 100 µM (inactive)
Cn1c(-c2cccs2)cc(-c2cccs2)c1-c1ccsc1 | 2.03 µM (inactive)
C/C=C(\C)C(=O)OC1/C=C(\C)CC/C=C(\C)CC2OC(=O)C(C)(OC(C)=O)C12 (stereo not given) | > 100 µM (inactive)
COc1cccc(-c2ccc3c4c2O[C@H]2c5[nH]c6ccccc6c5C[C@@]5(O)[C@@H](C3)N(CC3CC3)CC[C@]425)c1 | 1.69 µM (inactive)

input: Given the entry CN(C)CC1CN/C(=N\C(=O)Nc2ccccc2)O1 (stereo not given) , report its measured GI50.
output: > 100 µM (inactive)

input: Given the entry CS(=O)(=O)c1cc(=O)c2ccccc2s1 , report its measured GI50.
output: 2.72 µM (inactive)

====

- Tested on: SK-MEL-28
- procedure summary: NCI tumour cell line growth inhibition, 48 h
Active and inactive are the calls of the source. Rule as the data show it: active = GI50 up to about 1.1 µM and inactive = higher.
readout type: GI50

Consider the reported GI50 for these molecules:
COc1ccc(N2C(=O)c3cc([N+](=O)[O-])cnc3S2(=O)=O)cc1 | > 100 µM (inactive)
N#CCCN(CCC#N)CCN(CCN(CCC#N)CCC#N)CCN(CCC#N)CCC#N | > 100 µM (inactive)
O=C1CC23CCCCCCCCCCC2(C1)CC(=O)C3 (stereo not given) | 38.7 µM (inactive)
C=C(C)C[C@H](Sc1nc2ccccc2s1)[C@H](C)O | 41.4 µM (inactive)

For the next question, use this molecule.
input: Given the entry O=C(O)C(CS)Nc1c2ccccc2[n+]([O-])c2ccccc12 (stereo not given) , report its measured GI50.
output: > 100 µM (inactive)

====

- Tested on: KM-20L2
- procedure summary: NCI tumour cell line growth inhibition, 48 h
Active and inactive are the calls of the source. No stated cut-off is given here; in the data, active = GI50 up to about 1.1 µM and inactive = higher.
The entries below come with measured GI50 values attached.

Cc1c2ncccc2c(C)c2c1[nH]c1ccccc12 | 7.11 µM (inactive)
C(=C\c1cc(CCc2nc3ccccc3[nH]2)n[nH]1)/c1ccccc1 | > 100 µM (inactive)
O=[PH](O)c1ccsc1 | > 100 µM (inactive)

input: Given the entry O=c1ncccn1[C@@H]1O[C@H](CO)[C@@H](O)[C@@H]1F , report its measured GI50.
output: > 100 µM (inactive)

input: Given the entry COc1ccc(C2Oc3cc(OC)c(O)c(C)c3[C@H]2C)cc1 (some centres undefined) , report its measured GI50.
output: > 100 µM (inactive)

input: Given the entry COc1ccc(/C=C/CN(C)CCc2ccccc2)cc1OC , report its measured GI50.
output: 42.3 µM (inactive)

input: Given the entry CCN1C(=O)/C(=C\c2coc3ccccc3c2=O)SC1=S , report its measured GI50.
output: > 100 µM (inactive)

====

- System: MDA-MB-231
- procedure summary: NCI tumour cell line growth inhibition, 48 h
Activity calls are given as the source filed them. Rule as the data show it: active = GI50 up to about 1.1 µM and inactive = higher.
A correct response names exactly one class from y for active, n for inactive

CC(C)(O)C1COC2=C1C(=O)c1ccccc1C2=O (stereo not drawn) | n
CNc1ccc(N)cc1C(=O)N1CCC[C@H]1CO | n
Cc1cn(C2CC(N=[N+]=[N-])C(CO[Si](C)(C)C(C)(C)C)O2)c(=O)[nH]c1=O (stereo not drawn) | n
COc1ccc(-c2nnc3nc4ccccc4n3c2O)cc1 | n

input: Per the records of this test, what outcome belongs to COC1(OC)c2no[n+]([O-])c2C(OC)(OC)c2c1no[n+]2[O-] ?
output: n

input: Per the records of this test, what outcome belongs to Cc1ccc(C(=O)N/N=C(\N=N\c2cccc(Cl)c2)c2ccc(N(CCC#N)CCC#N)cc2C)cc1 ?
output: n

input: Per the records of this test, what outcome belongs to O=c1[nH]nc(Cc2ccccc2)n1/N=C/c1cccnc1 ?
output: n

input: Per the records of this test, what outcome belongs to O=c1[nH]cc(-c2c[nH]c3ccccc23)nc1-c1c[nH]c2ccccc12 ?
output: n

input: Per the records of this test, what outcome belongs to CN1C(=O)[C@](C)(Cc2ccc(F)cc2)N(C(=O)OC(C)(C)C)[C@@H]1C(C)(C)C ?
output: n

input: Per the records of this test, what outcome belongs to N#Cc1ncn(CCO)c1N ?
output: n

input: Per the records of this test, what outcome belongs to Nc1nc(O)nc2snnc12 ?
output: n

====

- Test system: HOP-62
- procedure summary: NCI tumour cell line growth inhibition, 48 h
Activity calls are given as the source filed them. No stated cut-off is given here; in the data, active = GI50 up to about 1.1 µM and inactive = higher.
readout type: GI50

Consider the reported GI50 for these compounds:
CCOC(=O)c1c[nH]c2c(Sc3ccccc3)nccc2c1=O | > 100 µM (inactive)
O=C1C/C(=C\c2ccccc2)C(=O)c2ccccc2N1 | 27.5 µM (inactive)
Cc1ccc2c(=O)c3cccc(CC(=O)O)c3[nH]c2c1C | > 100 µM (inactive)

input: Given the entry CCOC(=O)c1nnsc1N/N=C\c1ccc([N+](=O)[O-])cc1 , report its measured GI50.
output: 60 µM (inactive)

input: Given the entry CCOC(OC(C)=O)[C@@H]1C=C[C@H](C)N(c2ccc([N+](=O)[O-])cc2)O1 (stereo not given in full) , report its measured GI50.
output: 10.7 µM (inactive)

input: Given the entry O=P(O)(O)CCP(=O)(O)O , report its measured GI50.
output: > 100 µM (inactive)

input: Given the entry CC1=C/C(=C2/N=C(N(C)C)SS2)C(C)=N1.[O-][Cl+3]([O-])([O-])O , report its measured GI50.
output: > 100 µM (inactive)

input: Given the entry Cc1cc(C)n(CN(Cn2nc(C)cc2C)C2CCCCC2)n1 , report its measured GI50.
output: 31.3 µM (inactive)

input: Given the entry CN(C)c1ccc(/C=c2/c3ccccc3n3nc4ccccc4c23)cc1 , report its measured GI50.
output: 49.4 µM (inactive)

input: Given the entry CCCCCCCC/C=C1\CCC(CN(C)C)C1=O (stereo not given) , report its measured GI50.
output: 12.2 µM (inactive)

input: Given the entry O=C1CC(Nc2ccccc2)c2c(Cl)sc(Cl)c21 (stereo not given) , report its measured GI50.
output: 2.57 µM (inactive)

input: Given the entry C=C1C[C@@H]2O[C@H]3[C@H]4[C@@H](C[C@@H](C)[C@@H](OC(C)=O)[C@H]42)[C@@H](C)CO[C@@]3(C)[C@H](OC(=O)CCCCCCC)C[C@H]1O , report its measured GI50.
output: 17.4 µM (inactive)

input: Given the entry O=C1CC(=O)N(c2ccccc2)N1/C(=C/c1ccccc1)c1ccccc1 , report its measured GI50.
output: 18.5 µM (inactive)

input: Given the entry CCOC(=O)CNc1nc(=O)c2c(=O)oc(Cl)cc2o1 , report its measured GI50.
output: 25.4 µM (inactive)

input: Given the entry CCOP(=O)(OCC)/C(C#N)=C/c1ccc[nH]1 , report its measured GI50.
output: > 100 µM (inactive)

input: Given the entry O=S(=O)(c1ccccc1)c1ccc(-c2nc(-c3ccc4c(c3)Sc3ccccc3S4)cs2)cc1 , report its measured GI50.
output: 15.9 µM (inactive)

input: Given the entry N=C(N)c1ccc(/N=N/c2c(O)ccc3cc(O)ccc23)cc1 , report its measured GI50.
output: > 100 µM (inactive)

input: Given the entry NC(C(F)(F)F)(C(F)(F)F)P(=O)(c1ccccc1)c1ccccc1 , report its measured GI50.
output: > 100 µM (inactive)

input: Given the entry Nc1ncnc2c1sc1nc3ccccc3n12 , report its measured GI50.
output: > 70.1 µM (inactive)

input: Given the entry CC(=O)c1c2c(cc3c1CC1(Cc4cc5c(cc4C1)CCCC5)C3)CCCC2 , report its measured GI50.
output: > 100 µM (inactive)

====

The entries below come with measured GI50 values attached.
- Test system: MDA-N
- procedure summary: NCI tumour cell line growth inhibition, 48 h
The source made the active and inactive calls. Cut-off read from the data, not from the text of the source: active = GI50 up to about 1.1 µM and inactive = higher.

CC(C)(C)OC(=O)NC(CSCc1ccc(C(=O)c2ccccc2)cc1)C(=O)N1CCN(CCCCN2c3ccccc3Sc3cc(N=[N+]=[N-])ccc32)CC1 (configuration not stated) | > 100 µM (inactive)

input: Given the entry CCOC(=O)C1=CN/C(=C(/C)C(=O)OC)SC1C(=O)OCC (configuration not stated) , report its measured GI50.
output: > 100 µM (inactive)

input: Given the entry O=C(NNC(=O)c1ccccc1Cl)c1ccccc1O , report its measured GI50.
output: > 100 µM (inactive)

input: Given the entry COc1ccc(N2C(=O)CSC2c2c[nH]c3ccccc23)cc1 (configuration not stated) , report its measured GI50.
output: 35.2 µM (inactive)

input: Given the entry O=C(O)CCCc1ccc(N(CCCl)CCCl)cc1 , report its measured GI50.
output: 117 µM (inactive)
